Hello, the source for this data is patent US20230293539A1, in case you need it.

Experiment: Dog PK (oral)
Type: in vivo, Beagle dogs
Conditions: Beagle, 1.5 mg/kg, 1.5 mpk, plasma
Measurement Name: Cmax (nM)
One number for each entry, in nM.

>>> reported("Cc1c(F)c(N)cc(C(=O)Nc2cc(-n3cc(C(=O)N4CCN(C)CC4)nn3)c(F)cc2N2C[C@@H](C)N(C)[C@@H](C)C2)c1Cl")
8.4

// moving on: another record for Cmax
Input: Could you tell me which Cmax is on file for "C[C@@H]1CN(c2ncc(-c3cc(Nc4ncnc(Cl)c4N)c(N4CCN(C)[C@@H](C)C4)cc3F)cn2)C[C@H](C)O1" ?
Output: 188
